Reported NanoBRET Fold Response values for the following molecules.
Target: AGTR1 (Homo sapiens, UniProt P30556)
Construct: purchased Promega (in-house HiBiT-GPCR construct library, NanoBRET)
Sequence (P30556 whole entry): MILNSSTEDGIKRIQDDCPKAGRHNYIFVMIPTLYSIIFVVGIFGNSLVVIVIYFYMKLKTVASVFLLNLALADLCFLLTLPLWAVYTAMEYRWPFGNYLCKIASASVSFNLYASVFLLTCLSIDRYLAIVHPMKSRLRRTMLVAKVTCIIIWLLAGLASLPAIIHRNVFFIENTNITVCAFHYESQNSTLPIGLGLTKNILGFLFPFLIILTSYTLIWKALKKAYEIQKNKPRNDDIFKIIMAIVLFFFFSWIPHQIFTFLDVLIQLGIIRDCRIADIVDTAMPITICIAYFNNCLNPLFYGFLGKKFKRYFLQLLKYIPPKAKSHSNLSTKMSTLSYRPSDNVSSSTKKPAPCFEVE
Assay: NanoBRET screen HiBiT-AGTR1 in HEK293
Type: binding
Details: AGTR1; tracer 0.1μM
measurement.label: NanoBRET Fold Response

{"molecule": "O=C(CCc1ccc2n1[B-](F)(F)[N+]1=C(c3ccc[nH]3)C=CC1=C2)NCCOCCOCCNC(=O)OCCOCCN1CCN(C2=Nc3ccccc3Sc3ccccc32)CC1", "measurement.label": "NanoBRET Fold Response", "assay.value": 1.00}
{"molecule": "Cc1nc2n(c(=O)c1CCN1CCC(c3noc4cc(F)ccc34)CC1)CCCC2OC(=O)NCCOCCOCCOCCOCCNC(=O)CCc1ccc2n1[B-](F)(F)[N+]1=C(c3ccc[nH]3)C=CC1=C2 (stereo not drawn)", "measurement.label": "NanoBRET Fold Response", "assay.value": 0.99}
{"molecule": "N#CN=C(NCCCOc1cccc(CN2CCCCC2)c1)NCCNC(=O)CCOCCOCCOCCOCCNC(=O)CCc1ccc2n1[B-](F)(F)[N+]1=C(c3ccc[nH]3)C=CC1=C2", "measurement.label": "NanoBRET Fold Response", "assay.value": 1.00}

----------
Target: GNRHR (Homo sapiens)
Construct: purchased Promega (in-house HiBiT-GPCR construct library, NanoBRET)
Sequence (P30968 1-328): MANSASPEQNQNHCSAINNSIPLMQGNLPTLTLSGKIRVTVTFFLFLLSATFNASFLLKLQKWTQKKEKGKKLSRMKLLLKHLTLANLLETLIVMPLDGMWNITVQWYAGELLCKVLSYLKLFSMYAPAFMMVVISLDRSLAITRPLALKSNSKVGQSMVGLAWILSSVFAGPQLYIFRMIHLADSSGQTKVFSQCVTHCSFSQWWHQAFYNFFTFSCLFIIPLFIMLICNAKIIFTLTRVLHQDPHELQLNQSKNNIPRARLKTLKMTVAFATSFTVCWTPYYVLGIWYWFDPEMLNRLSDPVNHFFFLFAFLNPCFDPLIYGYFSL
Assay: NanoBRET screen HiBiT-GNRHR in HEK293
Type: binding
Details: GNRHR; tracer 1μM
Use Criterion met when the recorded NanoBRET Fold Response is no lower than 1; use Criterion not met when it is lower.

{"record.smiles": "COc1ccccc1N1CCN(CCCCN2C(=O)c3ccc(CNC(=O)CCOCCOCCOCCOCCNC(=O)CCc4ccc5n4[B-](F)(F)[N+]4=C(c6ccc[nH]6)C=CC4=C5)cc3C2=O)CC1", "label.value": "Criterion not met"}
{"record.smiles": "O=C(CCc1ccc2n1[B-](F)(F)[N+]1=C(c3ccc[nH]3)C=CC1=C2)NCCOCCOCCNC(=O)OCCOCCN1CCN(C2=Nc3ccccc3Sc3ccccc32)CC1", "label.value": "Criterion not met"}
{"record.smiles": "Cc1cc2c(s1)Nc1ccccc1N=C2N1CCN(CCCNC(=O)CCOCCOCCOCCOCCNC(=O)CCc2ccc3n2[B-](F)(F)[N+]2=C(c4ccc[nH]4)C=CC2=C3)CC1", "label.value": "Criterion met"}
{"record.smiles": "COc1ccccc1N1CCN(CCCCN2C(=O)c3ccc(CNC(=O)CCOCCNC(=O)c4ccc(CNC(=O)CCc5ccc6n5[B-](F)(F)[N+]5=C(c7ccc[nH]7)C=CC5=C6)cc4)cc3C2=O)CC1", "label.value": "Criterion not met"}

Attribution: paper PMC8151276
